Recorded measurements of GI50, one per entry
Test system: A549 NSCLC
assay explanation: NCI tumour cell line growth inhibition, 48 h
metric: GI50

>>> value_reported("CO[C@H]1/C=C/O[C@@]2(C)Oc3c(C)c(O)c4c(c3C2=O)C(=O)C(/C=N/N(c2ccccc2)c2ccccc2)=C(NC(=O)/C(C)=C\\C=C\\[C@H](C)[C@H](O)[C@@H](C)[C@@H](O)[C@@H](C)[C@H](OC(C)=O)[C@@H]1C)C4=O")
"1.69 µM"
>>> value_reported("CC(=O)[O][Ga]([Cl])[O]C(C)=O")
"> 100 µM"
>>> value_reported("C=C1C(=O)O[C@H]2[C@H]1CC/C(COC(=O)CSCCSCC(=O)OC/C1=C/CC[C@@]3(C)O[C@H]3[C@H]3OC(=O)C(=C)[C@@H]3CC1)=C\\CC[C@@]1(C)O[C@@H]21")
"2.72 µM"
>>> value_reported("N[C@H](C(=O)O)[C@H]1ON=C(Cl)[C@@H]1O")
"3.79 µM"
>>> value_reported("CC(=O)[CH-]C(C)=O.CC(=O)[CH-]C(C)=O.[CH2-]CCC.[CH2-]CCC.[Sn+4]")
"1.88 µM"
>>> value_reported("COc1ccc(C(=O)/C=C/c2ccc(C)cc2)cc1OC")
"11.2 µM"
>>> value_reported("Clc1nc(Cl)c2ncn(Cc3cccc(Cn4cnc5c(Cl)nc(Cl)nc54)c3)c2n1")
"11.3 µM"
>>> value_reported("CCOC(=O)N1CCN(c2nc(Nc3cc(C)[nH]n3)c3ccccc3n2)CC1")
"7.6 µM"

----------
System: SN12C renal
assay explanation: NCI tumour cell line growth inhibition, 48 h; in the data active means GI50 below about 0.43 µM; inactive means the rest
Labels: active, inactive

>>> assigned_label("C#CCOc1cccc(-c2ncnc3cc(NC(=O)CCl)ccc23)c1")
"active"
>>> assigned_label("C[N-]c1nnnn1C.[Au+].c1ccc([PH+](c2ccccc2)c2ccccc2)cc1")
"inactive"
>>> assigned_label("COc1cc(-c2cc3ncccc3c3nc(N)c4cccnc4c23)cc(OC)c1OC")
"inactive"
>>> assigned_label("COC(=O)c1c2c(c[n+]([O-])c1C)C(=O)C=CC2=O")
"inactive"
>>> assigned_label("Fc1ccc2[nH]cc(-c3nonc3-c3c[nH]c4ccc(Br)cc34)c2c1")
"inactive"
>>> assigned_label("CN(C)CCCNC(=O)c1cc(NC(=O)c2cc(NC(=O)CCc3c[nH]c4ccccc34)cn2C)cn1C")
"inactive"
>>> assigned_label("O=C(Nc1cccc(-n2ccc3c(NC(=O)c4ccccc4)nccc32)c1)Nc1cc(C(F)(F)F)cc(C(F)(F)F)c1")
"inactive"
>>> assigned_label("N[C@H](C(=O)O)[C@H]1ON=C(Cl)[C@@H]1O")
"inactive"
>>> assigned_label("CN(C)CCCOc1ccc(-c2ccc3ncc4c(c3c2)n(C2CCOCC2)c(=O)n4C)cn1")
"inactive"
>>> assigned_label("COc1cccc(-c2cc(=O)c3cc(OC)ccc3[nH]2)c1")
"active"

----------
Recorded measurements of TGI, one per entry
Tested on: SNB-75 CNS
assay explanation: NCI tumour cell line growth inhibition, 48 h
metric: TGI

>>> value_reported("CCc1cccc(C)c1NC(=O)c1sc2nc3c(cc2c1N)CCCCC3")
"51.5 µM"
>>> value_reported("O=C1CC2(c3ccccc3)ON=C(c3ccccc3)N2c2ccccc2N1 (centres undefined)")
"> 100 µM"
>>> value_reported("CCCCCC(=O)C(C)C1=Nc2nnc(CCCCCCCc3nnc4n3C(=O)C(C(C)C(=O)CCCCC)=N4)n2C1=O (centres undefined)")
"> 100 µM"
>>> value_reported("Nn1c(COc2cccc(OCc3n[nH]c(=S)n3N)c2)n[nH]c1=S")
"> 100 µM"
>>> value_reported("C[C@]12CC[C@H]3[C@@H](CC=C4C[C@@H](N5CCCC5)CC[C@@]43C)[C@@H]1C[C@H](N1CCOCC1)[C@@H]2O")
"> 100 µM"
>>> value_reported("CCCCC(C#N)(OP1(=O)OC(c2ccccc2)C(C)N1C)c1ccccc1 (centres undefined)")
"37.3 µM"
>>> value_reported("Oc1ccc(-c2nc(-c3cccnc3)c(-c3ccc(Cl)cc3)[nH]2)cc1O")
"20.2 µM"
>>> value_reported("O=C(O)c1cc2ccccc2c(N=Nc2ccc(S(=O)(=O)Nc3nccs3)cc2)c1O")
"> 100 µM"
>>> value_reported("Cc1[nH]c2ccccc2c1C(=O)CC1(O)C(=O)Nc2ccccc21 (centres undefined)")
"> 100 µM"
